Sourced from the supplement of paper PMC10065799

testSystem: Fyn (UniProt P06241)
Sequence (P06241 whole entry, looked up): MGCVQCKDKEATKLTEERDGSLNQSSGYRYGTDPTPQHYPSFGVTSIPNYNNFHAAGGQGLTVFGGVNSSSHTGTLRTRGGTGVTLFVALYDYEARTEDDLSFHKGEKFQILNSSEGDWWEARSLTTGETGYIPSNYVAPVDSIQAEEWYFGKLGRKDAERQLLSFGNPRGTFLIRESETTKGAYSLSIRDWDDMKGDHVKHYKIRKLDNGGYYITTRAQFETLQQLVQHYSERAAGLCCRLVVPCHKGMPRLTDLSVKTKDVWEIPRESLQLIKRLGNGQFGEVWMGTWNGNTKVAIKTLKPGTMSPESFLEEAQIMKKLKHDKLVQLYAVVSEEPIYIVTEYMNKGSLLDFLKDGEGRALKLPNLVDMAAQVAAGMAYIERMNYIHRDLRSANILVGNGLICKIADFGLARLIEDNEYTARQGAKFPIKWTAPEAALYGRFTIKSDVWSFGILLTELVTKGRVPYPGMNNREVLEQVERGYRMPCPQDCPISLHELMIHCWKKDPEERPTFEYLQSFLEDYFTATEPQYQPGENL
method: phosphorylation enrichment, bacterial display (enrichment ratio); higher = better substrate or ligand; peptides without Tyr show the background;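 also: 11-residue human phosphosite peptides and single-mutation variants displayed on the E. coli surface, counted by deep sequencing, each peptide's frequency after selection divided by its frequency in the unselected input library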;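 also: frequency after pTyr selection over input frequency; kinase dosed for 20-30% of maximal phosphorylation in three min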
readoutLabel: phosphorylation enrichment
Keep the answer to the number alone.

Use the examples below as a reference point.
Just so you know, measured phosphorylation enrichment for EAVKNYTDKRG [PBRM1_Y672] came out at 0.421

Just so you know, measured phosphorylation enrichment for GISDEYHMIRH [GCDH_Y398_V400M] came out at 0.58

Just so you know, measured phosphorylation enrichment for RKKEEYKMAPY [F8_Y1990_L1994P] came out at 0.939

Just so you know, measured phosphorylation enrichment for SRDPFYEMLTA [CYTH1_Y382_A386T] came out at 2.38

Just so you know, measured phosphorylation enrichment for ATHRSYDSDNP [MMUT_Y146_G145S] came out at 0.47

New cases:
Just so you know, measured phosphorylation enrichment for IFHLSYLHNCE [PDE6B_Y227_YF] came out at 0.546
